Data provenance is PubChem BioAssay (NCI).

test system: PC-3 prostate; assay: NCI-60 one-dose screen, 48 h (100 = growth as untreated, 0 = no growth, -100 = all killed); conditions: 10 µM unless noted
This is part of a sample that, as a whole, favours compounds with a hit. Of some 83,000 tested, about 20% had one in any assay. Calls of active or inactive are those of the source. Rule for the calls: active = growth percent below 10; inactive = the rest.
// reported growth for each item listed

Recorded results for 5 compounds are shown here.
COc1ccc(-c2cc(-c3nnc(SC/C(=N\O)c4ccccc4)n3-c3ccccc3)c3ccccc3n2)cc1    93.6% (inactive)
C=CC(C)(O)CCC1C(=C)CCC2C(C)(C)CCCC12C (stereo unspecified)    112% (inactive)
O=S(=O)(CCN1CCOCC1)Nc1cc(-c2ccc3ncnc(Nc4ccc(F)c(Cl)c4)c3c2)cnc1Cl    13.4% (inactive)
CN(C)c1ncc(C#Cc2c(F)cccc2F)c2ccccc12    75.7% (inactive)
COC(=O)c1ccc(NC(N)=NCC(C)(C)COc2ccc(C(F)(F)F)cc2)nc1    50.9% (inactive)

QUERY: Report its growth with PC-3 prostate as the test system: `COc1ccc(/C=C/C(=O)c2ccc(-n3cc(CN4CCN(c5cc6c(cc5F)c(=O)c(C(=O)O)cn6C5CC5)CC4)nn3)cc2)cc1OC`
RESULT: 9.95% (active)

QUERY: Report its growth with PC-3 prostate as the test system: `NCC(=O)NS(=O)(=O)OC[C@H]1O[C@@H](n2cnc3c(N)ncnc32)[C@H](O)[C@@H]1O`
RESULT: 9.66% (active)

QUERY: Report its growth with PC-3 prostate as the test system: CC(Cc1cccc(C(F)(F)F)c1)NCCOC(=O)c1ccccc1 (stereo unspecified)
RESULT: 103% (inactive)

QUERY: Report its growth with PC-3 prostate as the test system: `CCOC(=O)n1cnc2c(Cl)ncnc21`
RESULT: 113% (inactive)

QUERY: Report its growth with PC-3 prostate as the test system: `NS(=O)(=O)c1ccc(-n2nc(-c3ccc(Cl)cc3)ccc2=O)cc1`
RESULT: 85.6% (inactive)

QUERY: Report its growth with PC-3 prostate as the test system: `O=C(Nc1ccccc1F)Nc1ccccc1Cl`
RESULT: 108% (inactive)

QUERY: Report its growth with PC-3 prostate as the test system: `O=C(Nc1ccc(-n2ccc3c(NC(=O)c4ccccc4)ncnc32)cc1)c1ccc(Cl)c(C(F)(F)F)c1`
RESULT: 29.1% (inactive)

QUERY: Report its growth with PC-3 prostate as the test system: CC(C(C(=O)N1CCCCC1)N1CCCCC1)N1CCCCC1 (stereo unspecified)
RESULT: 107% (inactive)

###

system: IGROV1 ovarian; assay: NCI-60 one-dose screen, 48 h (100 = growth as untreated, 0 = no growth, -100 = all killed); settings: 10 µM unless noted
This is part of a sample that, as a whole, favours compounds with a hit. Of some 83,000 tested, about 20% had one in any assay.
Readout name: growth (%)
The answer is to be given in %; state only the numeric part.

NS(=O)(=O)c1ccc(Nc2nc(O)c(/C=C3\C=Nc4ccccc43)s2)cc1    92.5
CC12CCC3C(CCC4CC(O)CCC43C)C1C/C(=C/O)C(=O)O2 (stereo unspecified)    105
COc1ccc(CCNC=O)cc1OC    94

QUERY: Answer with the recorded growth of `Cc1ccc[n+](CC(=O)c2cccc3ccccc23)c1` only.
RESULT: 96

QUERY: Answer with the recorded growth of `Cc1cccc[n+]1CCC[n+]1ccccc1C` only.
RESULT: 107

QUERY: Answer with the recorded growth of `C=CC(=O)NC(=O)Nc1ccccc1Cl` only.
RESULT: 88.2

###

tested on: DU-145 prostate; experiment: NCI-60 one-dose screen, 48 h; details: 10 µM unless noted
About 83,000 compounds went through this panel and 20% of them were active in at least one assay; those are over-represented in the sample as a whole. The source made the active and inactive calls. How the source made its calls: active means growth percent below 10; inactive means the rest.
Outcome (select one): true (1) = active, false (0) = inactive

Example cases with answers are listed next.
CCn1cc(C(=O)O)c(=O)c2cc(F)c(N3CCN(CC(=O)Nc4ccc(C(C)=O)cc4)CC3)cc21    false (0)
Cc1cn(C2CC(N=[N+]=[N-])C(COP(=O)(O)OP(=O)(O)OP(=O)(O)O)O2)c(=O)[nH]c1=O (stereo not given)    false (0)

QUERY: Identify the outcome logged in this assay for the molecule shown: `CN(C)CCNc1nc2ccccc2c2c(=O)c3ccccc3sc12`
RESULT: true (1)

QUERY: Identify the outcome logged in this assay for the molecule shown: CCC1S/C(=N\N=C(/C)c2ccco2)N(c2ccccc2)C1=O (stereo not given)
RESULT: false (0)

QUERY: Identify the outcome logged in this assay for the molecule shown: `O=S(=O)(Nc1cccc2cc(OS(=O)(=O)c3ccccc3)ccc12)c1ccccc1`
RESULT: false (0)

QUERY: Identify the outcome logged in this assay for the molecule shown: `CS(=O)(=O)Nc1cccc(-c2ccc3ncnc(Nc4ccc(F)c(Cl)c4)c3c2)c1`
RESULT: false (0)

QUERY: Identify the outcome logged in this assay for the molecule shown: `O=c1c2ccccc2[nH]n1Cc1ccc2c(c1)OCO2`
RESULT: false (0)

QUERY: Identify the outcome logged in this assay for the molecule shown: CCC(N)(C(=O)O)c1ccc(F)cc1 (stereo not given)
RESULT: false (0)

QUERY: Identify the outcome logged in this assay for the molecule shown: CC(C(=O)O)N1C(N)=NNC1c1ccccc1O (stereo not given)
RESULT: false (0)

QUERY: Identify the outcome logged in this assay for the molecule shown: `CS(=O)(=O)OCC(COS(C)(=O)=O)C(c1ccccc1)c1ccccc1`
RESULT: false (0)

###

// reported growth for each item listed
tested on: OVCAR-5 ovarian; test: NCI-60 one-dose screen, 48 h (100 = growth as untreated, 0 = no growth, -100 = all killed); details: 10 µM unless noted
Compounds without any hit were thinned out: in the full panel of roughly 83,000, 20% have a hit.
The answer is to be given in %; state only the numeric part.

Recorded results for 3 compounds are shown here.
NCC(=O)NS(=O)(=O)OC[C@H]1O[C@@H](n2cnc3c(N)ncnc32)[C@H](O)[C@@H]1O    0.292
COc1ccc2c(c1)/C(=C/c1c(-c3cc(OC)c(OC)c(OC)c3Br)nc3sccn13)C(=O)N2    105
O=C(Cn1c2ccccc2c2ccncc21)N/N=C/c1c[nH]c2ccccc12    107

QUERY: Answer with the recorded growth of `CC(=O)O[C@@H]1[C@@H](OC(C)=O)[C@H](OC(C)=O)CO[C@H]1Nc1cccc2ccccc12` only.
RESULT: 100

QUERY: Answer with the recorded growth of `S=c1[nH]nc(Cn2c3ccccc3c3ccncc32)o1` only.
RESULT: 102

QUERY: Answer with the recorded growth of `COc1cc(/C=C\c2cc(/C=C\c3ccc(O)c(OC)c3)n(C(=O)CNc3ccccc3OC)n2)ccc1O` only.
RESULT: 102

QUERY: Answer with the recorded growth of `CCn1c(C)nc([N+](=O)[O-])c1Sc1nc(N)nc2nc[nH]c12` only.
RESULT: 31.7

QUERY: Answer with the recorded growth of O=C1CCC(c2c(O)cc(O)c3c(=O)c(O)c(-c4ccc(O)c(O)c4)oc23)N1 (stereo not given) only.
RESULT: 104

QUERY: Answer with the recorded growth of `COc1ccc(Cl)cc1NC(=O)c1cc2c([nH]1)-c1nc(NC(=O)C(C)C)sc1CC2` only.
RESULT: 128

QUERY: Answer with the recorded growth of O=C1OC(N(Cc2ccc(Cl)cc2)c2ccccc2)c2ccccc21 (stereo not given) only.
RESULT: 109

QUERY: Answer with the recorded growth of `COc1cc(Br)c(-c2nc(-c3ccccc3)c(-c3ccccc3)n2Cc2ccccc2)cc1OC` only.
RESULT: 77.1

QUERY: Answer with the recorded growth of `O=c1cc(Cl)[nH]c(=O)[nH]1` only.
RESULT: 105

QUERY: Answer with the recorded growth of O=C(c1cc(-c2ccc(Cl)cc2)nc2ccccc12)N1N=C(c2ccccc2)CC1c1cc(-c2ccccc2)nn1-c1ccccc1 (stereo not given) only.
RESULT: 89.4

QUERY: Answer with the recorded growth of CC(C(=O)O)N1C(N)=NNC1c1ccccc1O (stereo not given) only.
RESULT: 108

QUERY: Answer with the recorded growth of `CNCCCOc1c(Br)cc(CCNC(=O)/C(Cc2cc(Br)c(OC)c(Br)c2)=N/O)cc1Br` only.
RESULT: 36.2

###

test system: LOX IMVI melanoma; assay: NCI-60 one-dose screen, 48 h (100 = growth as untreated, 0 = no growth, -100 = all killed); settings: 10 µM unless noted
This is part of a sample that, as a whole, favours compounds with a hit. Of some 83,000 tested, about 20% had one in any assay.
Mark 1.0 only for growth values smaller than 90%; exact matches and larger values are 0.0.

Example cases with answers are listed next.
NS(=O)(=O)c1ccc(-n2nc(-c3ccc(Cl)cc3)ccc2=O)cc1    0.0
Nc1ccc(S(=O)(=O)Nc2cc(I)cc(I)c2)cc1    0.0
CCc1c2cc(Cl)ccc2n2cc(Cc3ccccc3)[nH]c(=O)c12    0.0
Nc1nc2ccc(CNc3ccc(C(=O)NC(CC(=O)O)C(=O)O)cc3)cc2c(=O)[nH]1 (stereo not given)    1.0

QUERY: Problem: For the molecule `CCCCCCCCCCCCCCCCCCNCc1ccc(Cl)cc1` , is growth under 90%?
RESULT: 1.0

QUERY: Problem: For the molecule `CCCCOc1nc2ccc(Cl)cc2cc1/C=C/C(=O)/C=C/c1ccc(Cl)cc1` , is growth under 90%?
RESULT: 1.0

QUERY: Problem: For the molecule `CCCC(C)(C)COC(=O)c1cccc(N)c1` , is growth under 90%?
RESULT: 0.0

QUERY: Problem: For the molecule `COc1ccc(/C(Cl)=N/N=C(\Cl)c2cc(OC)c(OC)c(OC)c2)cc1OC(C)=O` , is growth under 90%?
RESULT: 0.0

QUERY: Problem: For the molecule CC(C)(c1ccc(OCC(O)CNCc2ccco2)cc1)c1ccc(OCC(O)CNCc2ccco2)cc1 (stereo not given) , is growth under 90%?
RESULT: 1.0

QUERY: Problem: For the molecule `C#C[C@@]1(O)[C@@H](CO)O[C@@H](n2cc(Br)c3c(Cl)ccnc32)[C@@H]1O` , is growth under 90%?
RESULT: 1.0
